The measurements presented in this section are drawn from patent US4959361A.

Answer each item with its documented ED50.
- System: PAF Induced Bronchoconstriction
- MEASUREMENT_DESCRIPTION: PAF induced bronchoconstriction assay, oral testing
- Assay type: in vivo, guinea pig
- CONDITION_NOTES: Cavia porcellus, po; Table II; p.o., 2 hr; read-out: Bronchoconstriction ID-50 p.o. 2 hr
Answers are plain numbers, in mg/kg.

Some solved cases for reference:
- SMILES_STR: "O=C1c2ccccc2C(=O)N1CC#Cc1ccc2c(c1)C(c1ccccc1F)=NCc1nnc(C(F)(F)F)n1-2"
  SYSTEM_NAME: "PAF Induced Bronchoconstriction"
  RESULT: 0.3
- SMILES_STR: "CCc1nnc2n1-c1ccc(C#CCN3C(=O)c4ccccc4C3=O)cc1C(c1ccccc1F)=NC2"
  SYSTEM_NAME: "PAF Induced Bronchoconstriction"
  RESULT: 1.5

Could you now look at the following compound, please?
The compound Cc1nnc2n1-c1ccc(C#CCN3C(=O)CCc4ccccc43)cc1C(c1ccccc1F)=NC2 showed ED50 equal to 0.44

====

- SYSTEM_NAME: PAF-binding, dog platelets (Canis lupus familiaris)
- Construct: dog platelets; from tissue; host or cells: washed platelets from citrated dog blood
- MEASUREMENT_DESCRIPTION: PAF binding assay (radiolabelled H-PAF, washed dog platelets)
- CONDITION_NOTES: Table II, triazolobenzodiazepines, 10 minutes at room temperature, read-out: PAF-binding IC-50
hey, just use y if measured IC50 is less than 70 nM, otherwise n

- MOLECULE: "Cc1nnc2n1-c1ccc(C#CCn3c(C)nc4ccccc4c3=O)cc1C(c1ccccc1F)=NC2"
  SYSTEM_NAME: "PAF-binding, dog platelets (Canis lupus familiaris)"
  ANSWER_LABEL: "y"

I'd appreciate it if you could check whether Cc1nnc2n1-c1ccc(C#CCN3C(=O)CN(C)C(=O)c4ccccc43)cc1C(c1ccccc1F)=NC2 has IC50 smaller than 70 nM.
n

I'd appreciate it if you could check whether Cc1nnc2n1-c1ccc(C#CCN3C(=O)CCc4ccccc43)cc1C(c1ccccc1F)=NC2 has IC50 smaller than 70 nM.
y

I'd appreciate it if you could check whether Cc1nnc2n1-c1ccc(C#CCCc3ccccc3)cc1C(c1ccccc1F)=NC2 has IC50 smaller than 70 nM.
y

I'd appreciate it if you could check whether Cc1nnc2n1-c1ccc(C#CCN3C(=O)C(=O)c4ccccc43)cc1C(c1ccccc1Cl)=NC2 has IC50 smaller than 70 nM.
n

I'd appreciate it if you could check whether Cc1nnc2n1-c1ccc(C#CCN3Cc4ccccc4C3=O)cc1C(c1ccccc1F)=NC2 has IC50 smaller than 70 nM.
n

====

Answer each item with its documented ED50.
- System: PAF Induced Bronchoconstriction
- MEASUREMENT_DESCRIPTION: PAF induced bronchoconstriction assay, oral testing
- Assay type: in vivo, guinea pig
- CONDITION_NOTES: Cavia porcellus, po; Table II; p.o., 2 hr; read-out: Bronchoconstriction ID-50 p.o. 2 hr
Answers are plain numbers, in mg/kg.

- SMILES_STR: "Cc1nnc2n1-c1ccc(C#CCN3C(=O)c4ccccc4C3=O)cc1C(c1ccccc1Cl)=NC2"
  SYSTEM_NAME: "PAF Induced Bronchoconstriction"
  REPORTED_ENDPOINT: "ED50"
  RESULT: 1.4

Could you now look at the following compound, please?
The compound Cc1nnc2n1-c1ccc(C#CCN3C(=O)c4ccccc4C3=O)cc1C(c1ccccc1F)=NC2 showed ED50 equal to 0.52

====

- System: PAF Induced Bronchoconstriction
- MEASUREMENT_DESCRIPTION: PAF induced bronchoconstriction assay, oral testing
- Assay type: in vivo, guinea pig
- CONDITION_NOTES: Cavia porcellus, po; Table II (*); 3 mg/kg p.o., 2 hr
REPORTED_ENDPOINT: inhibition in vivo at 3 mg/kg

- COMPOUND: "Cc1nnc2n1-c1ccc(C#CCN3C(=O)CSc4ccccc43)cc1C(c1ccccc1F)=NC2"
  inhibition in vivo at 3 mg/kg: "99%"

Each compound below has a recorded value; state its inhibition in vivo at 3 mg/kg.
1. Cc1nnc2n1-c1ccc(C#CCN3C(=O)C4CC=CCC4C3=O)cc1C(c1ccccc1F)=NC2 (stereo not shown)
2. COC1c2ccccc2C(=O)N1CC#Cc1ccc2c(c1)C(c1ccccc1F)=NCc1nnc(C)n1-2 (stereo not shown)
3. Cc1nnc2n1-c1ccc(C#CCN3C(=O)c4cccc5cccc(c45)C3=O)cc1C(c1ccccc1Cl)=NC2
4. Cc1nnc2n1-c1ccc(C#CCN3Cc4ccccc4C3=O)cc1C(c1ccccc1F)=NC2

1. 99%
2. 100%
3. 99%
4. 100%

Each compound below has a recorded value; state its inhibition in vivo at 3 mg/kg.
1. Cc1nnc2n1-c1ccc(C#CCn3c(=O)oc4ccccc43)cc1C(c1ccccc1Cl)=NC2
2. Cc1nnc2n1-c1ccc(C#CCN3C(=O)COc4ccccc43)cc1C(c1ccccc1F)=NC2
3. Cc1nnc2n1-c1ccc(C#CCN3C(=O)c4cccc5cccc3c45)cc1C(c1ccccc1F)=NC2
4. Cc1nnc2n1-c1ccc(C#CCN3C(=O)C4CCCN4C3=O)cc1C(c1ccccc1F)=NC2 (stereo not shown)

91%
98%
57%
99%

The compound Cc1nnc2n1-c1ccc(C#CCn3nc4ccccn4c3=O)cc1C(c1ccccc1F)=NC2 showed inhibition in vivo at 3 mg/kg equal to 43%

====

Answer each item with its documented log10(IC50).
- SYSTEM_NAME: PAF-binding, dog platelets (Canis lupus familiaris)
- Construct: dog platelets; from tissue; host or cells: washed platelets from citrated dog blood
- MEASUREMENT_DESCRIPTION: PAF binding assay (radiolabelled H-PAF, washed dog platelets)
- CONDITION_NOTES: Table I, triazolothienodiazepines, 10 minutes at room temperature, read-out: PAF-binding IC-50
Annotation: log10 of IC50, nM basis.

Some solved cases for reference:
- MOLECULE: "Cc1nnc2n1-c1sc(C#CCn3cnc4ccccc43)cc1C(c1ccccc1Cl)=NC2"
  log10(IC50): 0.65
- MOLECULE: "Cc1nnc2n1-c1sc(C#CCN3C(=O)CCc4ccccc43)cc1C(c1ccccc1Cl)=NC2"
  log10(IC50): -0.70
- MOLECULE: "Cc1nnc2n1-c1sc(C#CCN3C(=O)COc4ccccc43)cc1C(c1ccccc1Cl)=NC2"
  log10(IC50): -0.15
- MOLECULE: "Cc1nnc2n1-c1sc(C#CCC34CCCc5cccc(c53)NC4=O)cc1C(c1ccccc1Cl)=NC2 (stereo not drawn)"
  log10(IC50): -0.15
- MOLECULE: "Cc1nnc2n1-c1sc(C#CCn3nc4ccccn4c3=O)cc1C(c1ccccc1Cl)=NC2"
  log10(IC50): 1.04

Each molecule below has a recorded value; state its log10(IC50).
1. Cc1nnc2n1-c1sc(C#CCn3c(=O)n(C)c(=O)c4ccccc43)cc1C(c1ccccc1Cl)=NC2
2. Cc1nnc2n1-c1sc(C#CCn3c(=O)c4c(ncn4C)n(C)c3=O)cc1C(c1ccccc1Cl)=NC2
3. Cc1nnc2n1-c1sc(C#CCn3c(=O)c4ccccc4c4ccccc43)cc1C(c1ccccc1Cl)=NC2
4. Cc1nnc2n1-c1sc(C#CCN3C(=O)c4cccc5cccc(c45)C3=O)cc1C(c1ccccc1Cl)=NC2
5. Cc1nnc2n1-c1sc(C#CCN3C(=O)c4cccc5cccc3c45)cc1C(c1ccccc1Cl)=NC2
6. Cc1nnc2n1-c1sc(C#CCn3c(=O)n(C)c4ccccc43)cc1C(c1ccccc1Cl)=NC2
7. Cc1nnc2n1-c1sc(C#CCn3c4ccccc4c4ccccc43)cc1C(c1ccccc1Cl)=NC2

-0.22
0.85
1.11
1.08
0.70
-0.52
2.08

Each molecule below has a recorded value; state its log10(IC50).
1. Cc1nnc2n1-c1sc(C#CCn3c(=O)c4ccccc4c4ccccc4c3=O)cc1C(c1ccccc1Cl)=NC2
2. Cc1nnc2n1-c1sc(C#CCn3c4c(c5ccccc53)CCCC4)cc1C(c1ccccc1Cl)=NC2
3. Cc1nnc2n1-c1sc(C#CCn3c(=O)c4ccccc4c4ccccc43)cc1C(c1ccccc1Cl)=NC2O (stereo not drawn)
4. Cc1nnc2n1-c1sc(C#CCn3cnc4c3c(=O)n(C)c(=O)n4C)cc1C(c1ccccc1Cl)=NC2

1.71
0.85
1.40
1.30

====

- SYSTEM_NAME: PAF-binding, dog platelets (Canis lupus familiaris)
- Construct: dog platelets; from tissue; host or cells: washed platelets from citrated dog blood
- Sequence (A0A8I3NSH0 1-343): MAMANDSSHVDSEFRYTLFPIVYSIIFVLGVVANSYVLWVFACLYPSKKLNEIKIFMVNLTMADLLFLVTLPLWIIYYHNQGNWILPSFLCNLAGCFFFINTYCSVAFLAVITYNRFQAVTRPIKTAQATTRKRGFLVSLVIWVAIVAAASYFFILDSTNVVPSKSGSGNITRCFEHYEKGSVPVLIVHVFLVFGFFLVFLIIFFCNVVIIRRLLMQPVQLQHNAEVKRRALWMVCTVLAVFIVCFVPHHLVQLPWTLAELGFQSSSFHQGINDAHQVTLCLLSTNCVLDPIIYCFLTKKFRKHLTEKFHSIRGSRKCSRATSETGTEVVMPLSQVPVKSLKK
- MEASUREMENT_DESCRIPTION: PAF binding assay (radiolabelled H-PAF, washed dog platelets)
- CONDITION_NOTES: Table I, triazolothienodiazepines, 10 minutes at room temperature, read-out: PAF-binding IC-50
REPORTED_ENDPOINT: pIC50
Numbers only, as −log10 of the molar value.

- SMILES_STR: "Cc1nnc2n1-c1sc(C#CCn3ncc4ccccc43)cc1C(c1ccccc1Cl)=NC2"
  pIC50: 9.00
- SMILES_STR: "Cc1nnc2n1-c1sc(C#CCn3c(=O)c4ccccc4c4ccccc43)cc1C(c1ccccc1Cl)=[N+]([O-])C2"
  pIC50: 7.82
- SMILES_STR: "Cc1nnc2n1-c1sc(C#CCN3C(=O)C(=O)c4ccccc43)cc1C(c1ccccc1Cl)=NC2"
  pIC50: 8.15
- SMILES_STR: "Cc1nnc2n1-c1sc(C#Cc3ccccn3)cc1C(c1ccccc1Cl)=NC2"
  pIC50: 6.60

Each compound below has a recorded value; state its pIC50.
1. Cc1nnc2n1-c1sc(C#CCn3ccc4ccccc4c3=O)cc1C(c1ccccc1Cl)=NC2
2. Cc1nnc2n1-c1sc(C#CCN3C(=O)c4ccccc4S3(=O)=O)cc1C(c1ccccc1Cl)=NC2
3. Cc1nnc2n1-c1sc(C#CCN3C(=O)Cc4ccccc43)cc1C(c1ccccc1Cl)=NC2

9.00
8.40
8.52

Each compound below has a recorded value; state its pIC50.
1. Cc1nnc2n1-c1sc(C#CCn3c(=O)ccc4ccccc43)cc1C(c1ccccc1Cl)=NC2
2. C#Cc1cc2c(s1)-n1c(C)nnc1CN=C2c1ccccc1Cl

1: 8.70; 2: 8.00
